# MEASURED ON: T1, Anti-CD28 Fab (SEQ ID NOs: 696, 697)
# T1 construct: In the phage ELISA the Fab was biotinylated and captured on neutravidin coated plates
# ASSAY PROCEDURE: phage ELISA; biotinylated anti-CD28 Fab on neutravidin plate, clonal phage detected with anti-M13-HRP
MEASUREMENT NAME: Phage binding ELISA, Anti-CD28 Fab signal
Returns: the value as a bare number; no unit string appended.

SCAAVFSFPWSPCL (tested as crude clonal phage supernatant) [Phage-1446 peptide (SEQ ID NO: 1742)] | 1.87
TCSAGATYSWPQCL (tested as crude clonal phage supernatant) [Phage-1450 peptide (SEQ ID NO: 1746)] | 1.84
TCTAGFSYNWPMCF (tested as crude clonal phage supernatant) [Phage-1448 peptide (SEQ ID NO: 1744)] | 1.85

Now, please, on to the next binder.
Query :: Report Phage binding ELISA, Anti-CD28 Fab signal for PCSAGATYAWLYCV (tested as crude clonal phage supernatant) [Phage-1458 peptide (SEQ ID NO: 1754)] please.
Result :: 1.81
